# Assay target: Recombinant human TYK2 catalytic domain (amino acids 871-1187) (Homo sapiens)
# Construct: catalytic domain (amino acids 871-1187)
# Sequence (P29597 871-1187): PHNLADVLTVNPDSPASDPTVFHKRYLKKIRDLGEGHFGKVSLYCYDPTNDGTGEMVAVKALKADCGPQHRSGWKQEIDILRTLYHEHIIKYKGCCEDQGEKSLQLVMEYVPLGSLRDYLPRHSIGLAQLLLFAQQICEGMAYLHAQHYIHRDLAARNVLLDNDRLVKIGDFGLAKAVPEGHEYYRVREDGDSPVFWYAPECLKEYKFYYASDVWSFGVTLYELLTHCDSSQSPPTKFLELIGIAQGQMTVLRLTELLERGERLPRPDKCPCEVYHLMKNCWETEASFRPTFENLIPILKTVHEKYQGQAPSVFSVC
# Experimental protocol: TYK2 radioactive assay polyGT substrate; note: 0.1 µM ATP
# Assay type: biochemical
pIC50: −log10 of the molar value.
Test readout: pIC50

1. Cc1cc(C#N)ncc1Oc1cc(Nc2ccc(S(=O)(=O)C3CC3)cc2)c2ncn(C)c2n1 [Compound 69]    8.22
2. COC1CN(C(=O)c2ccc(Nc3cc(Oc4cnc(C#N)cc4C)nc4c3ncn4C)nc2)C1 [Compound 103]    8.56
3. Cc1cc(C#N)ncc1Oc1cc(Nc2ccc(C(=O)NCC(C)O)nn2)c2ncn(C)c2n1 (centres unmarked) [Compound 25]    7.72
4. Cc1cc(C#N)ncc1Oc1cc(Nc2ccc(C(=O)N(C)C)c(C)n2)c2ncn(C)c2n1 [Compound 77]    8.53

a: Cc1cc(C#N)ncc1Oc1cc(Nc2ccc(N3CCN(C)CC3)cc2)c2ncn(C)c2n1 [Compound 110]
b: Cc1cc(C#N)ncc1Oc1cc(Nc2ccc(N3CCO[C@@H](C)C3)nn2)c2ncn(C)c2n1 [Compound 44]
Between a and b , which one shows the smaller pIC50 number? # respond with the chosen item's label
a
(a: 7.57, b: 8.71)

a: Cc1cc(C#N)ncc1Oc1cc(Nc2ccc(N3CCN(CC(F)(F)F)CC3)nn2)c2ncn(C)c2n1 [Compound 42]
b: Cc1cc(C#N)ncc1Oc1cc(Nc2ccc(C(F)(F)F)cn2)c2ncn(C)c2n1 [Compound 59]
Between a and b , which one shows the smaller pIC50 number? # respond with the chosen item's label
b
(b: 7.16, a: 8.56)
